- condition.info: in acetic acid, 308.15 K

smiles.string	solubility (mole fraction)
CO[C@H]1/C=C/O[C@@]2(C)Oc3c(C)c(O)c4c(O)c(c(/C=N/N5CCN(C6CCCC6)CC5)c(O)c4c3C2=O)NC(=O)/C(C)=C\C=C\[C@H](C)[C@H](O)[C@@H](C)[C@@H](O)[C@@H](C)[C@H](OC(C)=O)[C@@H]1C	0.0755

---

- condition.info: in acetic acid, 323.15 K
quantity.name: solubility (mole fraction)

smiles.string	numeric.value
CO[C@H]1/C=C/O[C@@]2(C)Oc3c(C)c(O)c4c(O)c(c(/C=N/N5CCN(C6CCCC6)CC5)c(O)c4c3C2=O)NC(=O)/C(C)=C\C=C\[C@H](C)[C@H](O)[C@@H](C)[C@@H](O)[C@@H](C)[C@H](OC(C)=O)[C@@H]1C	0.0913

---

- condition.info: in acetic acid, 283.15 K

smiles.string	solubility (mole fraction)
CO[C@H]1/C=C/O[C@@]2(C)Oc3c(C)c(O)c4c(O)c(c(/C=N/N5CCN(C6CCCC6)CC5)c(O)c4c3C2=O)NC(=O)/C(C)=C\C=C\[C@H](C)[C@H](O)[C@@H](C)[C@@H](O)[C@@H](C)[C@H](OC(C)=O)[C@@H]1C	0.0558
